From: patent US20210330611A1

Tested on: fibrin-induced microglia activation
measurement.description: Image-based assay of fibrin-induced microglia activation (HTS and dose response)
Format: cell-based, rat
condition.parameters: Rattus norvegicus, Microglia, 48 h, read-out: Fibrin IC50
Structures can show the parent of a compound that is named as a salt.
readout.type: pIC50
In simple prose, pIC50 is minus the logarithm base ten of a concentration in moles per litre.

Query :: Consider the molecule OCc1cc(C(O)CNCCCCCCOCCCCc2ccccc2)ccc1O (stereo not shown) [Salmeterol, reference compound] and give its recorded pIC50.
Result :: 6.00

Query :: Please look at this molecule and report its pIC50: CNCCC=C1c2ccccc2CCc2ccccc21 [Nortriptyline hydrochloride, reference compound]
Result :: 4.89

Query :: # return recorded pIC50 for entry CCCSc1ccc2nc(NC(=O)OC)[nH]c2c1 [Albendazole, reference compound]
Result :: 5.40

---

System: LPS-induced microglia activation
measurement.description: Image-based assay of LPS-induced microglia activation (HTS and dose response)
Format: cell-based, rat
condition.parameters: Rattus norvegicus, Microglia, 48 h, primary microglia HTS, LPS stimulation; increased cell size (>800 μm^2) as marker of activation; read-out: LPS % inhibition
As shown below, each of these compounds has a reported inhibition at 10 µM value.
Quick reminder: number only, in %, skip the unit.

Completed entries (count: 2):
{"compound": "CO[C@]12C[C@@H](COC(=O)c3cncc(Br)c3)CN(C)[C@@H]1Cc1cn(C)c3cccc2c13 [Nicergoline]", "inhibition at 10 µM [%]": 7}
{"compound": "CN(C)c1ccc(C(=C2C=CC(=[N+](C)C)C=C2)c2ccc(N(C)C)cc2)cc1 [Gentian Violet]", "inhibition at 10 µM [%]": 118}

Then this compound:
Query :: Find inhibition at 10 µM for CCC(=O)O[C@]1(C(=O)CCl)[C@@H](C)C[C@H]2[C@@H]3CCC4=CC(=O)C=C[C@]4(C)[C@@]3(F)[C@@H](O)C[C@@]21C [Clobetasol propionate, reference compound] on LPS-induced microglia activation and write it down.
Result :: 105

---

Test system: fibrin-induced microglia activation
measurement.description: Image-based assay of fibrin-induced microglia activation (HTS and dose response)
Assay type: cell-based, rat
condition.parameters: primary microglia HTS, fibrin stimulation; increased cell size (>800 μm^2) as marker of activation
readout.type: Fibrin % inhibition (%)
Your answer should be a plain number; it is taken to be in %.

Previously resolved entries follow.
{"compound": "C[C@@H]1C[C@H]2[C@@H]3CCC4=CC(=O)C=C[C@]4(C)[C@@]3(F)[C@@H](O)C[C@]2(C)[C@H]1C(=O)CO", "value.unit": "%", "reported.value": 108}
{"compound": "C[CH2][Hg][S]c1ccccc1C(=O)O", "value.unit": "%", "reported.value": 109}
{"compound": "CCCCCCc1ccc(O)cc1O.Nc1c2ccccc2nc2ccccc12 [Acrisorcin, reference compound]", "value.unit": "%", "reported.value": 87}
{"compound": "C=C1c2c(Cl)ccc(O)c2C(=O)C2=C(O)[C@]3(O)C(=O)C(C(N)=O)=C(O)[C@@H](N(C)C)[C@@H]3[C@@H](O)[C@H]12.O=C(O)c1cc(S(=O)(=O)O)ccc1O [Meclocycline Sulfosalicylate]", "value.unit": "%", "reported.value": 20}
{"compound": "CCOC(=O)C1=C[C@@H](OC(CC)CC)[C@H](NC(C)=O)[C@@H](N)C1 [Oseltamivir Phosphate]", "value.unit": "%", "reported.value": "−7"}

Query :: Give measured Fibrin % inhibition for CC1CCCC(C)N1 (centres unmarked) (fibrin-induced microglia activation).
Result :: 17

Query :: Under fibrin-induced microglia activation, report Fibrin % inhibition for COC(=O)C[C@](O)(CCCC(C)(C)O)C(=O)O[C@@H]1C(OC)=C[C@]23CCCN2CCc2cc4c(cc2[C@H]13)OCO4
Result :: 106

---

Test system: LPS-induced microglia activation
measurement.description: Image-based assay of LPS-induced microglia activation (HTS and dose response)
Format: cell-based, rat
condition.parameters: Rattus norvegicus, Microglia, 48 h; read-out: LPS % inhibition
Class true (1): inhibition at 10 µM at least 20%. Class false (0): inhibition at 10 µM below 20%.

Example entries and their recorded answers appear below.
{"compound": "CCC(NC(C)C)C(O)c1ccc(O)c2[nH]c(=O)ccc12 (centres unmarked)", "discrete.label": "true (1)"}
{"compound": "N#C[C@@H]1C[C@@H]2C[C@@H]2N1C(=O)[C@@H](N)C12CC3CC(CC(O)(C3)C1)C2", "discrete.label": "true (1)"}
{"compound": "CCCNC(C)C(=O)Nc1ccccc1C (centres unmarked)", "discrete.label": "false (0)"}
{"compound": "CC(C)NCC(O)c1ccc(NS(C)(=O)=O)cc1 (centres unmarked)", "discrete.label": "false (0)"}

Here's the next entry for you.
Query :: Does the compound Clc1ccc(C(Cn2ccnc2)OCc2csc3c(Cl)cccc23)c(Cl)c1 (centres unmarked) have recorded inhibition at 10 µM that is 20% or more?
Result :: false (0)

---

System: fibrin-induced microglia activation
measurement.description: Image-based assay of fibrin-induced microglia activation (HTS and dose response)
Type: cell-based, rat
condition.parameters: Rattus norvegicus, Microglia, read-out: Fibrin % inhibition
The recorded inhibition at 10 µM of each item maps onto one of these classes: c1 = under -10%, c2 = from -10% up to 20%, c3 = 20% and over

Use the examples below as a reference point.
{"molecule": "OCc1cc(C(O)CNCCCCCCOCCCCc2ccccc2)ccc1O (stereo not drawn) [Salmeterol, reference compound]", "discrete.label": "c3"}
{"molecule": "CCCC(C)C1(CC)C(=O)NC(=S)NC1=O (stereo not drawn)", "discrete.label": "c2"}

Query :: Which band does CC1(C)S[C@@H]2[C@H](NC(=O)[C@H](N)c3ccc(O)cc3)C(=O)N2[C@H]1C(=O)O fall in?
Result :: c1

Query :: Bin? Clc1ccc2nsnc2c1NC1=NCCN1
Result :: c2

---

Tested on: primary rat microglia
condition.parameters: rat
Assign labels as follows, please: 1 for Fibrin % cell toxicity below 2%; 0 for Fibrin % cell toxicity equal to or exceeding 2%.

{"compound": "COC(=O)[C@H]1[C@H]2C[C@@H]3c4[nH]c5cc(OC)ccc5c4CCN3C[C@H]2C[C@@H](OC(=O)c2cc(OC)c(OC)c(OC)c2)[C@@H]1OC", "discrete.label": 0}

Query :: Consider the compound COc1cc2nc(N3CCN(C(=O)C4CCCO4)CC3)nc(N)c2cc1OC (centres unmarked) . Is its Fibrin % cell toxicity strictly less than 2%?
Result :: 1

---

Items are presented alongside their recorded Fibrin % cell toxicity.
Tested on: primary rat microglia
measurement.description: Cell toxicity (dead cells, size <150 μm2) in coated fibrin (cFib) assay;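 note: share of dead cells sized under 150 µm2 at 10 µM in fibrin-stimulated microglia HTS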
condition.parameters: primary microglia HTS, fibrin stimulation, cell size <150 μm2 as marker of toxicity
Counter-ions that a name gives are not always drawn.
Response body: numeric value in %, unit text excluded.

{"molecule": "CC[C@H]1OC(=O)[C@H](C)[C@@H](O[C@H]2C[C@@](C)(OC)[C@@H](O)[C@H](C)O2)[C@H](C)[C@@H](O[C@@H]2O[C@H](C)C[C@H](N(C)C)[C@H]2O)[C@](C)(O)C[C@@H](C)/C(=N\\OCOCCOC)[C@H](C)[C@@H](O)[C@]1(C)O", "value.unit": "%", "Fibrin % cell toxicity": 0}
{"molecule": "CCc1ccc(CCOc2ccc(CC3SC(=O)NC3=O)cc2)nc1 (stereo not drawn)", "value.unit": "%", "Fibrin % cell toxicity": 1}
{"molecule": "OCc1ccccc1O", "value.unit": "%", "Fibrin % cell toxicity": 1}
{"molecule": "O=[N+]([O-])c1cc([As](=O)(O)O)ccc1O", "value.unit": "%", "Fibrin % cell toxicity": 1}
{"molecule": "CC[C@@H]1C(=O)OC[C@@H]1Cc1cncn1C", "value.unit": "%", "Fibrin % cell toxicity": 1}
{"molecule": "Cc1ncc([N+](=O)[O-])n1CC(C)O (stereo not drawn)", "value.unit": "%", "Fibrin % cell toxicity": 1}
{"molecule": "O=C(O)CN(CCN(CC(=O)O)CC(=O)O)CCN(CC(=O)O)CC(=O)O", "value.unit": "%", "Fibrin % cell toxicity": 0}
{"molecule": "CC(C)(Sc1cc(C(C)(C)C)c(O)c(C(C)(C)C)c1)Sc1cc(C(C)(C)C)c(O)c(C(C)(C)C)c1", "value.unit": "%", "Fibrin % cell toxicity": 0}
{"molecule": "CCC1(c2ccccc2)C(=O)NC(=O)NC1=O", "value.unit": "%", "Fibrin % cell toxicity": 0}
{"molecule": "O=C1c2ccccc2C(=O)C1c1ccccc1", "value.unit": "%", "Fibrin % cell toxicity": 1}

Query :: GET Fibrin % cell toxicity | system: primary rat microglia | item: CCN1CCCC(OC(=O)C(c2ccccc2)c2ccccc2)C1 (stereo not drawn) [Piperidolate Hydrochloride]
Result :: 0

Query :: Jot down Fibrin % cell toxicity (primary rat microglia) of C[C@H](N[C@@H](CCc1ccccc1)C(=O)O)C(=O)N1Cc2ccccc2C[C@H]1C(=O)O .
Result :: 1
